- Target Or System: Wild-type cruzipain (Trypanosoma cruzi, UniProt P25779)
- Sequence (P25779 whole entry): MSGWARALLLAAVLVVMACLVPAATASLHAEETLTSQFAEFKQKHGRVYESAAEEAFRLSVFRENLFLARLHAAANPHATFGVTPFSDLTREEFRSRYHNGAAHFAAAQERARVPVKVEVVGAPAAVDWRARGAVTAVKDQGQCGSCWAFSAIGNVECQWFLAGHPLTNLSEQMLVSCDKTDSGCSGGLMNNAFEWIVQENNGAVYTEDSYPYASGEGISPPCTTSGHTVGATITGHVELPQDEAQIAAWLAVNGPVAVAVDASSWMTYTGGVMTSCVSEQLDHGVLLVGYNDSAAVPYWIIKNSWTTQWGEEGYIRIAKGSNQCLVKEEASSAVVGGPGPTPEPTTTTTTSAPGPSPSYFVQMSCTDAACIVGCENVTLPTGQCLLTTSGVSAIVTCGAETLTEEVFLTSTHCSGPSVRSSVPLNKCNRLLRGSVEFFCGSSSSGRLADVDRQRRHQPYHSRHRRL
- Test Name: Trypanosoma cruzi cruzipain peptidase activity assay (Ki)
- Type: biochemical
- Condition Parameters: Table 5; read-out: Ki Cruzipain
- Procedure: Unless otherwise stated, all general chemicals and biochemicals were purchased from either the Sigma Chemical Company, Poole, Dorset, U.K or from Fisher Scientific UK, Loughborough, Leicestershire, U.K. Absorbance assays were carried out in flat-bottomed 96-well plates (Spectra; Greiner Bio-One Ltd., Stonehouse, Gloucestershire, U.K.) using a SpectraMax PLUS384 plate reader (Molecular Devices, Crawley, U.K.). […]
pKi: −log10 of the molar value.
Catalogue of pKi values

Before answering, review these 3 worked examples.
[
  {
    "Query Smiles": "CC(C)(C)c1ccc(C(=O)N[C@@H](Cc2ccc(O)cc2)C(=O)N2CC[C@@H]3[C@H]2C(=O)CN3C(=O)c2ccccc2)cc1",
    "Observed": "> 6.70"
  },
  {
    "Query Smiles": "CC(C)C[C@H](NC(=O)c1ccc(-c2cccs2)cc1)C(=O)N1CC[C@@H]2[C@H]1C(=O)CN2C(=O)c1ccccc1",
    "Observed": "< 6.52"
  },
  {
    "Query Smiles": "O=C(N[C@@H](CC1CCCCC1)C(=O)N1CC[C@@H]2[C@H]1C(=O)CN2C(=O)c1ccccc1)c1ccsc1",
    "Observed": "< 5.30"
  }
]

Now consider a different molecule.
Look up pKi for this molecule: O=C(N[C@@H](Cc1ccc(O)cc1)C(=O)N1CC[C@@H]2[C@H]1C(=O)CN2C(=O)c1ccccc1)c1cccc2ccccc12
< 6.00
